Target: Autotaxin (Homo sapiens)
Test: Inhibition of human recombinant ATX at 1 uM after 16 hrs; values are per cent of control
readout name: residual activity (%)

Below: 3 compounds and their reported residual activity.
CCCCCCCCCCCCCCCC(=O)N[C@@H](Cc1ccc(OCc2cc(OCC(F)(F)F)ccn2)cc1)C(O)CP(=O)(O)O (single isomer, unassigned; diastereomer b)    103
CCCCCCCCCCCCCCCC(=O)N[C@H](Cc1ccc(OCc2ccccn2)cc1)C(O)CP(=O)(O)O (stereo in doubt; f9)    103
CCCCCCCCCCCCCCCC(=O)N[C@@H](Cc1ccc(OCCCCC)cc1)C(O)CP(=O)(O)O (single isomer, unassigned; diastereomer a)    98

P: CCCCCCCCCCCCCCCC(=O)N[C@@H](Cc1ccc(OC)cc1)C(O)CP(=O)(O)O (single isomer, unassigned; diastereomer a)
Q: CCCCCCCCCCCCCCCC(=O)N[C@@H](Cc1ccc(OCCC)cc1)C(O)CP(=O)(O)O (single isomer, unassigned; diastereomer a)
[Q] Recorded residual activity values differ for P and Q ; which one is higher? Record your answer as the label of the chosen record.
[A] Q

* * *

Molecular target: Autotaxin (Homo sapiens) (UniProt Q13822)
Test: Inhibition of human recombinant ATX at 10 uM after 16 hrs; values are per cent of control
readout name: residual activity (%)

CCCCCCCCCCCCCCCC(=O)N[C@H](Cc1ccc(OCc2ncc(C)c(OC)c2C)cc1)C(O)CP(=O)(O)O (single isomer, unassigned; diastereomer a)    95
CCCCCCCCCCCCCCCC(=O)N[C@@H](Cc1ccc(OCc2ccccc2)cc1)C(O)CP(=O)(O)O (single isomer, unassigned; diastereomer a)    77
CCCCCCCCCCCCCCCC(=O)N[C@@H](Cc1ccc(OCCC)cc1)C(=O)CP(=O)(O)O    97
CCCCCCCCCCCCCCCC(=O)N[C@@H](Cc1ccc(OC)cc1)C(=O)CP(=O)(O)O    68
CCCCCCCCCCCCCCCC(=O)N[C@@H](Cc1ccc(OCCC)cc1)C(O)CP(=O)(O)O (single isomer, unassigned; diastereomer a)    97
CCCCCCCCCCCCCCCC(=O)N[C@@H](Cc1ccc(OCc2ccccn2)cc1)C(=O)CP(=O)(O)O    72
CCCCCCCCCCCCCCCC(=O)N[C@H](Cc1ccc(OCc2ccccc2)cc1)C(O)CP(=O)(O)O (single isomer, unassigned; diastereomer a)    82

* * *

Target: Autotaxin (Homo sapiens) (UniProt Q13822)
Test: Inhibition of human recombinant ATX at 10 uM after 16 hrs; values are per cent of control
readout name: residual activity (%)

CCCCCCCCCCCCCCCC(=O)N[C@H](Cc1ccc(OCc2ccccn2)cc1)C(O)CP(=O)(O)O (stereo in doubt; f9)    76

a: CCCCCCCCCCCCCCCC(=O)N[C@@H](Cc1ccc(OCCC)cc1)C(O)CP(=O)(O)O (single isomer, unassigned; diastereomer b)
b: CCCCCCCCCCCCCCCC(=O)N[C@@H](Cc1ccc(OCc2ncc(C)c(OC)c2C)cc1)C(O)CP(=O)(O)O (stereo in doubt; f17)
[Q] For the pair a and b , which member has the lower residual activity number? Record your answer as the label of the chosen record.
[A] b
(b: 13%, a: 100%)

* * *

Target: Autotaxin (Homo sapiens)
Assay: Inhibition of human recombinant ATX at 1 uM after 16 hrs; values are per cent of control
readout name: residual activity (%)

CCCCCCCCCCCCCCCC(=O)N[C@@H](Cc1ccc(OCCC)cc1)C(O)CP(=O)(O)O (single isomer, unassigned; diastereomer b)    100
CCCCCCCCCCCCCCCC(=O)N[C@@H](Cc1ccc(OC)cc1)C(O)CP(=O)(O)O (stereo in doubt; f22)    84
CCCCCCCCCCCCCCCC(=O)N[C@@H](Cc1ccc(OCc2ccccn2)cc1)C(O)CP(=O)(O)O (single isomer, unassigned; diastereomer a)    104
CCCCCCCC/C=C/CCCCCCCC(=O)N[C@@H](Cc1ccc(OCc2ncc(C)c(OC)c2C)cc1)C(O)CP(=O)(O)O (stereo in doubt; f42)    77
CCCCCCCCCCCCCCCC(=O)N[C@@H](Cc1ccc(OCCC(C)C)cc1)C(O)CP(=O)(O)O (stereo in doubt; f34)    106
CCCCCCCCCCCCCCCC(=O)N[C@H](Cc1ccc(OCc2ncc(C)c(OC)c2C)cc1)C(=O)CP(=O)(O)O    71
CCCCCCCCCCCCCCCCCC(=O)N[C@@H](Cc1ccc(OCc2ncc(C)c(OC)c2C)cc1)C(O)CP(=O)(O)O (stereo in doubt; f39)    101

* * *

Biological target: Autotaxin (Homo sapiens)
Assay: Inhibition of human recombinant ATX at 1 uM after 16 hrs; values are per cent of control
readout name: residual activity (%)

CCCCCCCCCCCCCCCC(=O)N[C@H](Cc1ccc(OCCCCC)cc1)C(O)CP(=O)(O)O (single isomer, unassigned; diastereomer b)    86
CCCCCCCCCCCCCCCC(=O)N[C@@H](Cc1ccc(OCc2ccccc2)cc1)C(O)CP(=O)(O)O (single isomer, unassigned; diastereomer b)    76
CCCCCCCCCCCCCCCC(=O)N[C@H](Cc1ccc(OCC2CCCCC2)cc1)C(O)CP(=O)(O)O (single isomer, unassigned)    84
CCCCCCCCCCCCCCCC(=O)N[C@H](Cc1ccc(OC)cc1)C(=O)CP(=O)(O)O    84
CCCCCCCCCCCCCCCC(=O)N[C@@H](Cc1ccc(OCc2ccccc2)cc1)C(O)CP(=O)(O)O (single isomer, unassigned; diastereomer a)    97
CCCCCCCCCCCCCCCC(=O)N[C@@H](Cc1ccc(OCCCCC)cc1)C(O)CP(=O)(O)O (single isomer, unassigned; diastereomer b)    94

* * *

Biological target: UniProt Q13822
Assay: Inhibition of human recombinant ATX at 10 uM after 16 hrs; values are per cent of control
readout name: residual activity (%)

Below: 3 molecules and their reported residual activity.
CCCCCCCCCCCCCCCC(=O)N[C@H](Cc1ccc(OCC2CCCCC2)cc1)C(O)CP(=O)(O)O (single isomer, unassigned)    80
CCCCCCCCCCCCCCCC(=O)N[C@H](Cc1ccc(OCc2cc(OCC(F)(F)F)ccn2)cc1)C(O)CP(=O)(O)O (single isomer, unassigned; diastereomer b)    84
CCCCCCCCCCCCCCCC(=O)N[C@H](Cc1ccc(OCc2ccccn2)cc1)C(O)CP(=O)(O)O (single isomer, unassigned; diastereomer b)    78

I: CCCCCCCCCCCCCCCC(=O)N[C@@H](Cc1ccc(OCCC(C)C)cc1)C(=O)CP(=O)(O)O
II: CCCCCCCCCCCCCCCC(=O)N[C@H](Cc1ccc(OCc2cc(OCC(F)(F)F)ccn2)cc1)C(=O)CP(=O)(O)O
III: CCCCCCCCCCCCCCCCCCCC(=O)N[C@@H](Cc1ccc(OCc2ncc(C)c(OC)c2C)cc1)C(O)CP(=O)(O)O (single isomer, unassigned; diastereomer a)
[Q] Order field: residual activity | Direction: descending (largest first) Provide the ranking by listing each label in its place in the requested order.
[A] I, II, III
(I: 104%, II: 70%, III: 45%)

P: CCCCCCCCCCCCCCCCCC(=O)N[C@@H](Cc1ccc(OCc2ncc(C)c(OC)c2C)cc1)C(O)CP(=O)(O)O (single isomer, unassigned; diastereomer b)
Q: CCCCCCCC/C=C/CCCCCCCC(=O)N[C@@H](Cc1ccc(OCc2ncc(C)c(OC)c2C)cc1)C(O)CP(=O)(O)O (single isomer, unassigned; diastereomer a)
[Q] For the pair P and Q , which member has the lower residual activity number? Record your answer as the label of the chosen record.
[A] Q
(Q: 45%, P: 90%)

* * *

Molecular target: Autotaxin (Homo sapiens)
Assay: Inhibition of human recombinant ATX at 100 uM after 16 hrs; values are per cent of control
readout name: residual activity (%)

CCCCCCCCCCCCCCCC(=O)N[C@H](Cc1ccc(OCc2ncc(C)c(OC)c2C)cc1)C(=O)CP(=O)(O)O    26

A: CCCCCCCCCCCCCCCCCC(=O)N[C@@H](Cc1ccc(OCc2ncc(C)c(OC)c2C)cc1)C(O)CP(=O)(O)O (stereo in doubt; f39)
B: CCCCCCCCCCCCCC(=O)N[C@H](Cc1ccc(OCc2ncc(C)c(OC)c2C)cc1)C(O)CP(=O)(O)O (stereo in doubt; f38)
C: CCCCCCCCCCCCCCCCCCCC(=O)N[C@@H](Cc1ccc(OCc2ncc(C)c(OC)c2C)cc1)C(O)CP(=O)(O)O (single isomer, unassigned; diastereomer a)
[Q] Please order the records by their reported residual activity, lowest number first. Provide the ranking by listing each label in its place in the requested order.
[A] C, B, A

a: CCCCCCCCCCCCCCCC(=O)N[C@H](Cc1ccc(OCCCCC)cc1)C(O)CP(=O)(O)O (single isomer, unassigned; diastereomer a)
b: CCCCCCCC/C=C/CCCCCCCC(=O)N[C@@H](Cc1ccc(OCc2ncc(C)c(OC)c2C)cc1)C(O)CP(=O)(O)O (single isomer, unassigned; diastereomer a)
[Q] For the pair a and b , which member has the lower residual activity number? Record your answer as the label of the chosen record.
[A] b
(b: 15%, a: 80%)

1: CCCCCCCCCCCCCCCC(=O)N[C@H](Cc1ccc(OCc2cc(OCC(F)(F)F)ccn2)cc1)C(O)CP(=O)(O)O (single isomer, unassigned; diastereomer b)
2: CCCCCCCCCCCCCCCC(=O)N[C@H](Cc1ccc(OC)cc1)C(=O)CP(=O)(O)O
[Q] For the pair 1 and 2 , which member has the lower residual activity number? Record your answer as the label of the chosen record.
[A] 2
(2: 32%, 1: 64%)
